assay: isobaric coefficient of expansion; settings: 308.15 K; 40000 kPa; Liquid; Microcalorimeter
value-type: isobaric coefficient of expansion

Here's what some known entries look like.
[[record]]
molecule = "CCn1cc[n+](C)c1.O=S(=O)([N-]S(=O)(=O)C(F)(F)F)C(F)(F)F"
observed = "0.000597 1/K"

[[record]]
molecule = "CCCC[n+]1cccc(C)c1.F[B-](F)(F)F [1-butyl-3-methylpyridinium tetrafluoroborate]"
observed = "0.000551 1/K"

[[record]]
molecule = "CCCCCCn1cc[n+](C)c1.F[B-](F)(F)F [1-hexyl-3-methylimidazolium tetrafluoroborate]"
observed = "0.000553 1/K"

[[record]]
molecule = "CCCCCC[n+]1ccn(C)c1.O=S(=O)([N-]S(=O)(=O)C(F)(F)F)C(F)(F)F"
observed = "0.000594 1/K"

[[record]]
molecule = "CCCCCCCC[n+]1ccn(C)c1.F[B-](F)(F)F [1-methyl-3-octylimidazolium tetrafluoroborate]"
observed = "0.000553 1/K"


Any idea what isobaric coefficient of expansion was measured for CCn1cc[n+](C)c1.F[B-](F)(F)F [1-ethyl-3-methylimidazolium tetrafluoroborate] ? 0.00055 1/K
